Species on record: Rattus norvegicus
Assay: DrugMatrix - Regimen: Daily Repeat
Format: toxicity, organism-based, Sprague-Dawley
Parameters: regimen Daily Repeat, gender Male, age 6-8 weeks
Settings: in vivo, po, 0.0007 mg/kg, 120 h, tissue Blood, route oral GAVAGE, dose level Low, time 5 day, vehicle .5 % CMC
Recorded Metric: ABSOLUTE EOSINOPHIL (cells/µL)
# unit: cells/µL | format: bare number

Q) State the recorded ABSOLUTE EOSINOPHIL for this entry: Clc1cc2c(cc1Cl)Oc1cc(Cl)c(Cl)cc1O2
A) 44

---

Species on record: Rattus norvegicus
Experiment: DrugMatrix - Regimen: Daily Repeat
Type: toxicity, organism-based, Sprague-Dawley
Set-up: regimen Daily Repeat, gender Male, age 6-8 weeks
Conditions: in vivo, po, 100 mg/kg, 72 h, tissue Plasma, route oral GAVAGE, dose level Low, time 3 day, vehicle .5 % CMC
Recorded CREATININE for the following compounds
// units = mg/dL; emit number, no label

Solved cases (3 shown):
{"Compound": "CC=Cc1ccc(O)c(OC)c1", "CREATININE / mg/dL": 0.17}
{"Compound": "C#C[C@]1(O)CC[C@H]2[C@@H]3CCC4=Cc5oncc5C[C@]4(C)[C@H]3CC[C@@]21C", "CREATININE / mg/dL": 0.17}
{"Compound": "CC[C@]1(O)CC[C@H]2[C@@H]3CCC4=CCCC[C@@H]4[C@H]3CC[C@@]21C", "CREATININE / mg/dL": 0.33}

Below: the item to evaluate.
Q) Quick one: CREATININE for Nc1nc2c(c(=O)[nH]1)N(C=O)C(CNc1ccc(C(=O)N[C@@H](CCC(=O)O)C(=O)O)cc1)CN2 (some centres undefined) ?
A) 0.22

---

Organism: Rattus norvegicus
Assay: DrugMatrix - Regimen: Daily Repeat
Type: toxicity, organism-based, Sprague-Dawley
Set-up: regimen Daily Repeat, gender Male, age 6-8 weeks
Conditions: in vivo, po, 0 mg/kg, 120 h, tissue Plasma, route oral GAVAGE, dose level Control, time 5 day, vehicle .5 % CMC
ALKALINE PHOSPHATASE values by entry
Answer with a number only, understood to be in u/L.

{"Substance Smiles": "CC(C)(Sc1cc(C(C)(C)C)c(O)c(C(C)(C)C)c1)Sc1cc(C(C)(C)C)c(O)c(C(C)(C)C)c1", "Recorded Metric": "ALKALINE PHOSPHATASE", "Unit Symbol": "u/L", "Numeric Result": 336}
{"Substance Smiles": "CC[C@]1(O)CC[C@H]2[C@@H]3CCC4=CCCC[C@@H]4[C@H]3CC[C@@]21C", "Recorded Metric": "ALKALINE PHOSPHATASE", "Unit Symbol": "u/L", "Numeric Result": 342.6}
{"Substance Smiles": "C[C@]12C/C(=C/O)C(=O)C[C@@H]1CC[C@@H]1[C@@H]2CC[C@@]2(C)[C@H]1CC[C@]2(C)O", "Recorded Metric": "ALKALINE PHOSPHATASE", "Unit Symbol": "u/L", "Numeric Result": 391}

Q) What measured ALKALINE PHOSPHATASE goes with CCCCC1C(=O)N(c2ccccc2)N(c2ccccc2)C1=O ?
A) 362.33

---

Species: Rattus norvegicus
Assay: DrugMatrix - Regimen: Daily Repeat
Format: toxicity, organism-based, Sprague-Dawley
Design: regimen Daily Repeat, gender Male, age 6-8 weeks
Details: in vivo, po, 100 mg/kg, 72 h, tissue Blood, route oral GAVAGE, dose level Low, time 3 day, vehicle .5 % CMC
Recorded Metric: BASOPHIL
# include the unit after the value

{"Compound": "CC[C@]1(O)CC[C@H]2[C@@H]3CCC4=CCCC[C@@H]4[C@H]3CC[C@@]21C", "Result": "0.23%"}
{"Compound": "CC=Cc1ccc(O)c(OC)c1", "Result": "0%"}
{"Compound": "Nc1nc2c(c(=O)[nH]1)N(C=O)C(CNc1ccc(C(=O)N[C@@H](CCC(=O)O)C(=O)O)cc1)CN2 (some centres undefined)", "Result": "0%"}

// next entry
Q) Endpoint output: BASOPHIL of C#C[C@]1(O)CC[C@H]2[C@@H]3CCC4=Cc5oncc5C[C@]4(C)[C@H]3CC[C@@]21C . Value?
A) 0%
